Test system: Klebsiella pneumoniae
Assay: Antimicrobial activity against multidrug resistant Klebsiella pneumoniae isolate 4 by broth dilution method
Assay type: functional
parameter: MIC (mg/L)
Write the answer as a number in mg/L, unit excluded.

# example entries with known answers
{"compound": "C[C@@H](O)[C@H]1C(=O)N2C(C(=O)O)=C(SCCNC=N)C[C@H]12 [IMIPENEM ANHYDROUS]", "parameter": "MIC", "assayValue": 1}
{"compound": "C[C@@H]1CN(c2c(F)c(N)c3c(=O)c(C(=O)O)cn(C4CC4)c3c2F)C[C@H](C)N1 [SPARFLOXACIN]", "parameter": "MIC", "assayValue": 8}
{"compound": "CO/N=C(\\C(=O)N[C@@H]1C(=O)N2C(C(=O)[O-])=C(C[N+]3(C)CCCC3)CS[C@H]12)c1csc(N)n1", "parameter": "MIC", "assayValue": 64}
{"compound": "O=C(N[C@H](CO)[C@H](O)c1ccc([N+](=O)[O-])cc1)C(Cl)Cl [CHLORAMPHENICOL]", "parameter": "MIC", "assayValue": 4}
{"compound": "CN(C)[C@@H]1C(O)=C(C(N)=O)C(=O)[C@@]2(O)C(O)=C3C(=O)c4c(O)cccc4[C@@](C)(O)[C@H]3C[C@@H]12 [TETRACYCLINE]", "parameter": "MIC", "assayValue": 2}

Ask | Form field - read-out: MIC; system: Klebsiella pneumoniae; submitted item: CCn1cc(C(=O)O)c(=O)c2cc(F)c(N3CCNCC3)cc21 [NORFLOXACIN]
Reply | 128

Ask | How about this compound: CO[C@@]1(NC(=O)Cc2cccs2)C(=O)N2C(C(=O)O)=C(COC(N)=O)CS[C@@H]21 [CEFOXITIN]
Reply | 32

* * *

// values below are reported MIC
Tested on: Klebsiella pneumoniae
Test: Antimicrobial activity against multidrug resistant Klebsiella pneumoniae isolate 14 by broth dilution method
Format: functional
Write the answer as a number in µg/mL, unit excluded.

# example entries with known answers
{"molecule": "C[C@@H]1CN(c2c(F)c(N)c3c(=O)c(C(=O)O)cn(C4CC4)c3c2F)C[C@H](C)N1", "unitSpec": "µg/mL", "assayValue": 2}
{"molecule": "CCn1cc(C(=O)O)c(=O)c2cc(F)c(N3CCNCC3)cc21", "unitSpec": "µg/mL", "assayValue": 8}
{"molecule": "CO[C@@]1(NC(=O)Cc2cccs2)C(=O)N2C(C(=O)O)=C(COC(N)=O)CS[C@@H]21", "unitSpec": "µg/mL", "assayValue": 64}

Ask | I'd like to know its MIC. The molecule in question is CN(C)[C@@H]1C(O)=C(C(N)=O)C(=O)[C@@]2(O)C(O)=C3C(=O)c4c(O)cccc4[C@@](C)(O)[C@H]3C[C@@H]12
Reply | 2

Ask | How about this molecule: CC(C)(O/N=C(\C(=O)N[C@@H]1C(=O)N2C(C(=O)[O-])=C(C[n+]3ccccc3)CS[C@H]12)c1csc(N)n1)C(=O)O
Reply | 16

Ask | How about this molecule: C[C@@H](O)[C@H]1C(=O)N2C(C(=O)O)=C(SCCNC=N)C[C@H]12 [IMIPENEM ANHYDROUS]
Reply | 0.5

* * *

Tested on: Klebsiella pneumoniae
Assay: Antimicrobial activity against multidrug resistant Klebsiella pneumoniae isolate 16 by broth dilution method in presence of 26.3 mg/L efflux pump inhibitor phenylalanine-arginine-beta-naphthylamide
Type: functional
parameter: MIC (µg/mL)
Write the answer as a number in µg/mL, unit excluded.

{"querySmiles": "CCn1cc(C(=O)O)c(=O)c2cc(F)c(N3CCNCC3)cc21", "testTarget": "Klebsiella pneumoniae", "assayValue": 0.5}

Ask | I'd like to know its MIC. The compound in question is CN(C)[C@@H]1C(O)=C(C(N)=O)C(=O)[C@@]2(O)C(O)=C3C(=O)c4c(O)cccc4[C@@](C)(O)[C@H]3C[C@@H]12
Reply | 128

Ask | How about this compound: O=C(N[C@H](CO)[C@H](O)c1ccc([N+](=O)[O-])cc1)C(Cl)Cl
Reply | 4

* * *

// values below are reported MIC
Test system: Klebsiella aerogenes
Assay: Antimicrobial activity against multidrug resistant Enterobacter aerogenes isolate 1 by broth dilution method
Format: functional
Write the answer as a number in µg/mL, unit excluded.

# example entries with known answers
{"querySmiles": "O=C(N[C@H](CO)[C@H](O)c1ccc([N+](=O)[O-])cc1)C(Cl)Cl", "unitSpec": "µg/mL", "MIC": 1020}
{"querySmiles": "CN(C)[C@@H]1C(O)=C(C(N)=O)C(=O)[C@@]2(O)C(O)=C3C(=O)c4c(O)cccc4[C@@](C)(O)[C@H]3C[C@@H]12", "unitSpec": "µg/mL", "MIC": 128}
{"querySmiles": "CO/N=C(\\C(=O)N[C@@H]1C(=O)N2C(C(=O)[O-])=C(C[N+]3(C)CCCC3)CS[C@H]12)c1csc(N)n1", "unitSpec": "µg/mL", "MIC": 32}

Next item in the queue.
Ask | I'd like to know its MIC. The compound in question is C[C@@H]1CN(c2c(F)c(N)c3c(=O)c(C(=O)O)cn(C4CC4)c3c2F)C[C@H](C)N1
Reply | 256

* * *

// values below are reported MIC
Tested on: Klebsiella aerogenes
Experiment: Antimicrobial activity against multidrug resistant Enterobacter aerogenes isolate 10 by broth dilution method in presence of 26.3 mg/L efflux pump inhibitor phenylalanine-arginine-beta-naphthylamide
Format: functional

# example entries with known answers
{"querySmiles": "CN(C)[C@@H]1C(O)=C(C(N)=O)C(=O)[C@@]2(O)C(O)=C3C(=O)c4c(O)cccc4[C@@](C)(O)[C@H]3C[C@@H]12", "testTarget": "Klebsiella aerogenes", "parameter": "MIC", "assayValue": "8 µg/mL"}
{"querySmiles": "C[C@@H]1CN(c2c(F)c(N)c3c(=O)c(C(=O)O)cn(C4CC4)c3c2F)C[C@H](C)N1", "testTarget": "Klebsiella aerogenes", "parameter": "MIC", "assayValue": "8 µg/mL"}
{"querySmiles": "CCn1cc(C(=O)O)c(=O)c2cc(F)c(N3CCNCC3)cc21", "testTarget": "Klebsiella aerogenes", "parameter": "MIC", "assayValue": "256 µg/mL"}

Next item in the queue.
Ask | I'd like to know its MIC. The molecule in question is O=C(N[C@H](CO)[C@H](O)c1ccc([N+](=O)[O-])cc1)C(Cl)Cl
Reply | 128 µg/mL

* * *

// values below are reported MIC
Tested on: Klebsiella pneumoniae
Assay: Antimicrobial activity against multidrug resistant Klebsiella pneumoniae isolate 14 by broth dilution method in presence of 26.3 mg/L efflux pump inhibitor phenylalanine-arginine-beta-naphthylamide
Type: functional
Write the answer as a number in mg/L, unit excluded.

# example entries with known answers
{"querySmiles": "O=C(N[C@H](CO)[C@H](O)c1ccc([N+](=O)[O-])cc1)C(Cl)Cl", "unitSpec": "mg/L", "MIC": 2}
{"querySmiles": "CCn1cc(C(=O)O)c(=O)c2cc(F)c(N3CCNCC3)cc21", "unitSpec": "mg/L", "MIC": 0.25}

Next item in the queue.
Ask | Form field - read-out: MIC; system: Klebsiella pneumoniae; submitted item: CN(C)[C@@H]1C(O)=C(C(N)=O)C(=O)[C@@]2(O)C(O)=C3C(=O)c4c(O)cccc4[C@@](C)(O)[C@H]3C[C@@H]12
Reply | 256

* * *

Test system: Klebsiella pneumoniae
Assay: Antimicrobial activity against multidrug resistant Klebsiella pneumoniae isolate 7 by broth dilution method in presence of 26.3 mg/L efflux pump inhibitor phenylalanine-arginine-beta-naphthylamide
Assay type: functional
// values below are reported MIC

Ask | I'd like to know its MIC. The molecule in question is O=C(N[C@H](CO)[C@H](O)c1ccc([N+](=O)[O-])cc1)C(Cl)Cl
Reply | 2 µg/mL

Ask | How about this molecule: C[C@@H]1CN(c2c(F)c(N)c3c(=O)c(C(=O)O)cn(C4CC4)c3c2F)C[C@H](C)N1
Reply | ≤ 0.06 µg/mL

Ask | How about this molecule: CCn1cc(C(=O)O)c(=O)c2cc(F)c(N3CCNCC3)cc21
Reply | 0.25 µg/mL

Ask | How about this molecule: CN(C)[C@@H]1C(O)=C(C(N)=O)C(=O)[C@@]2(O)C(O)=C3C(=O)c4c(O)cccc4[C@@](C)(O)[C@H]3C[C@@H]12
Reply | 128 µg/mL

* * *

// values below are reported MIC
System: Klebsiella aerogenes
Test: Antimicrobial activity against multidrug resistant Enterobacter aerogenes isolate 2 by broth dilution method in presence of 26.3 mg/L efflux pump inhibitor phenylalanine-arginine-beta-naphthylamide
Assay type: functional

{"querySmiles": "O=C(N[C@H](CO)[C@H](O)c1ccc([N+](=O)[O-])cc1)C(Cl)Cl", "MIC": "64 µg/mL"}
{"querySmiles": "CCn1cc(C(=O)O)c(=O)c2cc(F)c(N3CCNCC3)cc21", "MIC": "256 µg/mL"}
{"querySmiles": "C[C@@H]1CN(c2c(F)c(N)c3c(=O)c(C(=O)O)cn(C4CC4)c3c2F)C[C@H](C)N1", "MIC": "8 µg/mL"}

Ask | I'd like to know its MIC. The molecule in question is CN(C)[C@@H]1C(O)=C(C(N)=O)C(=O)[C@@]2(O)C(O)=C3C(=O)c4c(O)cccc4[C@@](C)(O)[C@H]3C[C@@H]12
Reply | 4 µg/mL
